Provenance of the data: ChEMBL document CHEMBL1150413

System: Histone deacetylase 2 (Homo sapiens, UniProt Q92769) | Read-out: IC50
Sequence (Q92769 whole entry): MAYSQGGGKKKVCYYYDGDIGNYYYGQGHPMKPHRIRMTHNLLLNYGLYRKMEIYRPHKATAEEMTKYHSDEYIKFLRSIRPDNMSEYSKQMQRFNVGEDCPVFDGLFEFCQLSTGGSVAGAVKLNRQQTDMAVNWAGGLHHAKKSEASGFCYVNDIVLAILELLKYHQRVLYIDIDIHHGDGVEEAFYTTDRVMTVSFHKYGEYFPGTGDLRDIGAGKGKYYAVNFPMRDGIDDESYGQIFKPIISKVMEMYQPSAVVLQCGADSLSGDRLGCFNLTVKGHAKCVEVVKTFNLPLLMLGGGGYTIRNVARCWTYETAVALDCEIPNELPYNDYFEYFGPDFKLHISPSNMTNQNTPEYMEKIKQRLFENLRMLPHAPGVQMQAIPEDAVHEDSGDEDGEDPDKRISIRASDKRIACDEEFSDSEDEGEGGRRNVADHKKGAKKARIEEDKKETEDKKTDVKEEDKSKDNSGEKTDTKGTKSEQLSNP

compound	IC50 / nM
O=C(CCCCCCC(=O)Nc1cccc(-c2cnnn2Cc2ccc(F)cc2)c1)NO	124
O=C(CCCCCCC(=O)Nc1cccc(-c2cnnn2CC(O)c2cccc(Br)c2)c1)NO (stereo not drawn)	116
O=C(CCCCCCC(=O)Nc1ccc(-c2cnnn2-c2ccccc2)cc1)NO	146

---

- assayed system: Protein deacetylase HDAC6 (Homo sapiens, UniProt Q9UBN7)
- Sequence (Q9UBN7 whole entry): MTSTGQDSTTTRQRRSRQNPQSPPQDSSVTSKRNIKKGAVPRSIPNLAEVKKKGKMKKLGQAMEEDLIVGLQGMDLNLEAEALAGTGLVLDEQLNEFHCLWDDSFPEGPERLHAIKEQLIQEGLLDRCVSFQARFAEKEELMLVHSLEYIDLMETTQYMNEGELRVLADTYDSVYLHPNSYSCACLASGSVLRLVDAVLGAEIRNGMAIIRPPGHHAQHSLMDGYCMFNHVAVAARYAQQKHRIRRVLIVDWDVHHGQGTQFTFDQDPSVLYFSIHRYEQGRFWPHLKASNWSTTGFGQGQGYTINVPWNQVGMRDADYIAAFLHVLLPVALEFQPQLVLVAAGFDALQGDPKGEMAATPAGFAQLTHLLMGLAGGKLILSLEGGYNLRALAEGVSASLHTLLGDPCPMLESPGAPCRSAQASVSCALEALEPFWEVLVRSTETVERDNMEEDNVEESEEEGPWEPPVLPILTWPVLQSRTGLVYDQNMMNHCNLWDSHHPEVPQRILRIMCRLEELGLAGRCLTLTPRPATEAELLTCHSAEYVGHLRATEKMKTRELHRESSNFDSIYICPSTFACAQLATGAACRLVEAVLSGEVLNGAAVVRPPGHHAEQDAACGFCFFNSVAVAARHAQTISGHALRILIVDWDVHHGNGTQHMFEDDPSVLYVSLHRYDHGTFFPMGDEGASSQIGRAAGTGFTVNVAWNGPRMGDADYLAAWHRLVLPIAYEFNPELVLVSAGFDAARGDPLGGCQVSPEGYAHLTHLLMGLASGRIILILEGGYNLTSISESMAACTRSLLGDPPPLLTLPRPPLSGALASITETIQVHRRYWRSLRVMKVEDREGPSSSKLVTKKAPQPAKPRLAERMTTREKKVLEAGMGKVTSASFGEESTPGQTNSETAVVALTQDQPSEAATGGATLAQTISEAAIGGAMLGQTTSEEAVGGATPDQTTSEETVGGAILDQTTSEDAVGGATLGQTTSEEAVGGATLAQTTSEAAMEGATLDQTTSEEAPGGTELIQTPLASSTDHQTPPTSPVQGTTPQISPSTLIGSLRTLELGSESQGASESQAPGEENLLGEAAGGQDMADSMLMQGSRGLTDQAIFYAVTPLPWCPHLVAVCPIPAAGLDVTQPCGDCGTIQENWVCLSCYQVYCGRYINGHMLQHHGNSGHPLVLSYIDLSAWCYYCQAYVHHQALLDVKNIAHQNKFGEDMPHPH
pIC50: −log10 of the molar value.

compound	pIC50
O=C(CCCCCCC(=O)Nc1cccc(-c2cnnn2Cc2ccccc2)c1)NO	8.48
O=C(CCCCCCC(=O)Nc1cccc(-c2cn(Cc3ccccc3)nn2)c1)NO	8.51
O=C(CCCCCCC(=O)Nc1cccc(-c2cnnn2CC(O)c2cccc(Br)c2)c1)NO (configuration not stated)	8.55
O=C(CCCCCCC(=O)Nc1ccc(-c2cn(CC(O)c3cccc(Br)c3)nn2)cc1)NO (configuration not stated)	8.36
O=C(CCCCCCC(=O)Nc1ccc(-c2cnnn2Cc2ccc(F)cc2)cc1)NO	8.14
O=C(CCCCCCC(=O)Nc1ccc(-c2cn(Cc3ccc(F)cc3)nn2)cc1)NO	8.72
O=C(CCCCCCC(=O)Nc1cccc(-c2cn(Cc3ccc(F)cc3)nn2)c1)NO	8.59
